- assay-method-text: PK studies in beagle dogs
- Assay type: in vivo
- assay-conditions: male, beagle, dog, plasma, po, 5 mg/kg, beagle dogs, 5 mg/kg oral every 12 h, last time of multiple administrations; read-out: Vz/F
measured-property: Vd/F (L/kg)
The reply should be a number in L/kg, with the unit left off.

Asked: // lookup Vd/F for CNCC[C@H](Oc1cccc2c1OCO2)c1cccs1 [ammoxetine]
Given back: 6.63
